- System: PKN1
- measurementConditions: concentration: 1 μM, replicates: in singlicate; n = 1
hey, just use Satisfied if measured %Inh is less than 4%, otherwise Not satisfied

1. CN1C(=O)C(Nc2ccc(Cl)c(C(=O)O)c2)=C(c2ccc(Cl)cc2)C1=O Not satisfied

Query :: %Inh strictly < 4% for this compound? Cc1ccc(NC(=O)Nc2cc(C(C)(C)C)nn2-c2ccccc2)cc1
Result :: Not satisfied

Query :: Please indicate whether the reported %Inh of COc1ccc(Nc2nccc(-c3cccc(NC(=O)c4cc5cc(F)ccc5[nH]4)c3)n2)cc1 is strictly below 4%.
Result :: Satisfied

Query :: Could you please tell me whether %Inh recorded for Cc1cccc(-c2nc(Nc3ccc4[nH]ncc4c3)c3ccccc3n2)n1 is less than 4%?
Result :: Not satisfied

Query :: Given the entry NC(=O)c1nnc2ccccc2c1N , would its reported %Inh be below 4%?
Result :: Satisfied

Query :: Given O=S(=O)(c1ccc(-c2ccnc3[nH]ccc23)cc1)N1CCCC1 , is recorded %Inh strictly lower than 4%?
Result :: Not satisfied

Query :: is_below(%Inh, 4%) for Cc1cccc(-c2nc(C)cc(Nc3ccncc3)n2)n1 ?
Result :: Satisfied

Query :: Please check: %Inh for Cl.Oc1ccc(-c2nc(-c3ccccc3)[nH]c2-c2ccncc2)cc1 , strictly under 4% or not?
Result :: Satisfied

----------
- Tested on: ERBB3
- measurementConditions: concentration: 1 μM, replicates: in singlicate; n = 1
experimentalReadout: %Inh (%)
One number for each entry, in %.

// solved cases for %Inh follow
compound	%Inh / %
Cn1ccc2ncnc(Oc3ccc(Nc4nc5ccccc5[nH]4)cc3)c21	0
CS(=O)(=O)c1ccc(-c2c(-c3ncn[nH]3)sc(N3CCOCC3)c2C#N)cc1	13

Hi team, please reply with %Inh for each item in this list.
1. Fc1cc(Cl)ccc1Nc1ccnc2cc(I)ccc12
2. Cl.Oc1ccc(-c2nc(-c3ccccc3)[nH]c2-c2ccncc2)cc1
3. Clc1cc(Cl)cc(Nc2ccnc(Nc3cc(Cl)cc(Cl)c3)n2)c1
4. CC(C)(C)c1ccc(C(=O)Nc2cn3cc(Cl)ccc3n2)cc1
5. C[C@@H]1CCCCN1c1cc(-c2ccc3c(N)n[nH]c3c2)nc(N)n1
6. COc1cc2ncnc(Nc3ccc4nc(-c5ccccc5)[nH]c4c3)c2cc1OC.Cl
7. CC1=C(C(=O)Nc2cc3cn[nH]c3cc2F)C(c2ccc(C(F)(F)F)cc2)CC(=O)N1 (stereo not drawn)

Result ::
1: 31; 2: 31; 3: 0; 4: 0; 5: 0; 6: 0; 7: 0

----------
Field: pKd. Provide a value for each of the compounds that follow.
- Tested on: MYLK2;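 note: kd values determined as follow-up on hits from a single-replicate KINOMEscan panel screen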
One number for each entry, as −log10 of the molar value.

Known pKd results, listed for orientation:
compound	pKd
O=C(Nc1n[nH]c2cc(-c3cccc(F)c3F)ccc12)C1CC1 [SB-733894]	7.04
O=C(Nc1n[nH]c2nc(-c3nccs3)c(Br)cc12)C1CCCC1 [SB-742609]	6.89

Then there is this compound:
Query :: Look up pKd: O=C(Nc1n[nH]c2nc(-c3nccs3)c(Br)cc12)C1CC1 [SB-742251]
Result :: 6.80

----------
- Tested on: JNK1
- Construct: gene MAPK8
- measurementConditions: concentration: 1 μM, replicates: in singlicate; n = 1
experimentalReadout: %Inh (%)
Give bare numbers, in %.

// known answers, use as guide
compound	result
Cc1ccc(NC(=O)Nc2cccc(Cl)c2)cc1-c1ccc(C(=O)Nc2ccncc2)cc1	15
CCn1c(-c2cccnc2O)nc2cnccc21	0
C[C@@H]1CCCCN1c1cc(-c2ccc3c(N)n[nH]c3c2)nc(N)n1	0

Dear colleague, could you please provide %Inh for the compounds listed below?
1. COc1ccc(Nc2nccc(NCCNC(=O)Nc3ccccc3F)n2)cc1
2. COc1ccc(CNC(=O)NC2CCN(c3ccnc(Nc4cc(OC)c(OC)c(OC)c4)n3)C2)cc1 (stereo not drawn)
3. COc1cc2nccc(Nc3ccc(NC(=O)c4ccc(C)cc4)c(O)c3)c2cc1OC.Cl
4. O=C(Nc1n[nH]c2nc(-c3nccs3)c(Br)cc12)C1CC1

Result ::
1. 56
2. 0
3. 16
4. 41

# batch: return %Inh for each of the 2 compounds below
1. Cc1cccc(-c2nc(Nc3ccncc3)c3ccccc3n2)n1
2. CCn1c(-c2ccccn2)nc2cnccc21

Result ::
[0, 24]

----------
Would you mind telling me the reported %Inh of each entry?
- System: DDR2
- measurementConditions: concentration: 1 μM, replicates: in singlicate; n = 1
Answers are plain numbers, in %.

Recorded %Inh, per entry:
1) Fc1cc(Cl)ccc1Nc1ccnc2cc(I)ccc12 8
2) Cc1cc(N2Cc3ccccc3C2)nc(Nc2ccc(S(=O)(=O)N3CCOCC3)cc2)n1.Cl 9

Here is the next item to consider.
Query :: Returns the measured %Inh for the input molecule. Input: Cn1cncc1-c1ccc2ncnc(Nc3ccc(OCc4ccccc4)cc3)c2c1
Result :: 4

----------
- Test system: JNK2
- Construct: gene MAPK9
- measurementConditions: concentration: 1 μM, replicates: in singlicate; n = 1
experimentalReadout: %Inh (%)
Numbers only, in %.

Count: 4. Required value per item: %Inh.
1. Cc1cccc(-c2nc(Nc3cccc(C(N)=O)c3)c3ccccc3n2)n1 [GW876019]
2. Nc1ncnc2[nH]c(-c3ccccc3)nc12 [AH5015]
3. Cn1ccc2ncnc(Oc3cccc(C(=O)Nc4ccccc4)c3)c21
4. Cl.c1ccc(-c2n[nH]cc2-c2ccnc(-c3ccc(CN4CCOCC4)cc3)c2)nc1 [GW776245]

Result ::
1: 0; 2: 16; 3: 0; 4: 17

----------
- Tested on: PRKCI
- measurementConditions: concentration: 1 μM, replicates: in singlicate; n = 1
Field: %Inh. Provide a value for each of the molecules that follow.
Give bare numbers, in %.

Below, each entry is followed by its recorded %Inh result.
molecule	result
COc1ccccc1CNC(=O)c1cc(C(=O)c2ccccc2C)c[nH]1	3
Cc1cccc(-c2nc(Nc3cccc(C(N)=O)c3)c3ccccc3n2)n1	24
Cc1c(O)cccc1Nc1ccnc2ccc(C(F)(F)F)cc12.Cl	0
Cc1ccc(C(=O)Nc2ccc(Nc3ccnc4cc(-c5ccccn5)ccc34)cc2O)cc1.Cl	5
Cc1nnc(-c2ccc3occ(-c4ccc(S(C)=O)cc4)c3c2)[nH]1 (stereo not shown)	0

For each entry beneath this line, provide reported %Inh.
1. Cc1cccc(-c2cc(Nc3ccncc3)c3ccccc3n2)n1
2. CCn1c(-c2cccnc2O)nc2cnccc21
3. O=C(Nc1n[nH]c2nc(-c3nccs3)c(Br)cc12)C1CCCC1
4. Cc1c(Cn2ccn3c(=O)cc(N4CCOCC4)nc23)cccc1C(F)(F)F
5. COc1ccc(CNC(=O)NC2CCN(c3ccnc(Nc4cc(OC)c(OC)c(OC)c4)n3)C2)cc1 (stereo not shown)

Result ::
[17, 0, 12, 0, 30]

----------
- Test system: PIP5K2C
- Construct: gene PIP4K2C
- measurementConditions: concentration: 1 μM, replicates: in singlicate; n = 1
experimentalReadout: %Inh (%)
Numbers only, in %.

Completed entries (count: 2):
compound	%Inh [%]
COc1ccc(Nc2nccc(-c3cccc(NC(=O)c4cc5cc(F)ccc5[nH]4)c3)n2)cc1	81
CC1=C(C(=O)Nc2cc3cn[nH]c3cc2F)C(c2ccc(C(F)(F)F)cc2)CC(=O)N1 (stereo not shown)	11

Hey, can you go through the list below and give me %Inh for every item?
1. Cc1cccc(-c2nc(-c3ccc(S(C)(=O)=O)cc3)sc2-c2ccnc(NCCc3ccccc3)c2)c1
2. Cc1c(Cn2ccn3c(=O)cc(N4CCOCC4)nc23)cccc1C(F)(F)F

Result ::
7
0

----------
Please provide measured %Inh for the entries that follow.
- Test system: PLK4
- measurementConditions: concentration: 1 μM, replicates: in singlicate; n = 1
Numbers only, in %.

compound	%Inh [%]
O=C(O)COc1ncnc2cc(-c3ccc4[nH]ncc4c3)sc12	15
Cc1cccc(-c2cc(Nc3ccncc3)c3ccccc3n2)n1	2

Report %Inh for every entry below.
1. Cc1nnc(-c2ccc3occ(-c4ccc(S(C)=O)cc4)c3c2)[nH]1 (stereo not drawn)
2. COc1ccccc1-c1ccc2c(NC(=O)C3CC3)n[nH]c2n1
3. COc1ccc(CNC(=O)NC2CCN(c3ccnc(Nc4cc(OC)c(OC)c(OC)c4)n3)C2)cc1 (stereo not drawn)
4. Cl.Oc1ccc(-c2nc(-c3ccccc3)[nH]c2-c2ccncc2)cc1
5. COc1ccc2nc(-c3cccc(C)n3)nc(Nc3ccncc3)c2c1
6. CC(C)(C)c1ccc(C(=O)Nc2cn3cc(-c4cccnc4)ccc3n2)cc1
7. Cl.c1ccc(-c2n[nH]cc2-c2ccnc(-c3ccc(CN4CCOCC4)cc3)c2)nc1
8. Cc1ccc(C(=O)Nc2ccc(Nc3ccnc4cc(-c5ccccn5)ccc34)cc2O)cc1.Cl

Result ::
1: 11; 2: 0; 3: 19; 4: 0; 5: 0; 6: 15; 7: 0; 8: 10

State recorded %Inh for all listed compounds.
1. Cc1ccc(NC(=O)Nc2cccc(Cl)c2)cc1-c1ccc(C(=O)Nc2ccncc2)cc1
2. Fc1cccc(COc2nnc(-c3ccc4c(c3)CCO4)o2)c1
3. O=S(=O)(c1ccc(-c2ccnc3[nH]ccc23)cc1)N1CCCC1
4. COC(=O)c1c(-c2ccccc2)c2cc(OC)ccc2c(=O)n1Cc1ccccc1

Result ::
1. 0
2. 12
3. 0
4. 19

Each compound below has a recorded value; state its %Inh.
1. O=C(Nc1n[nH]c2cc(-c3cccc(F)c3F)ccc12)C1CC1
2. COc1cc(Nc2nccc(N3CCC(NC(=O)Nc4cc(C)ccc4C)C3)n2)cc(OC)c1OC (stereo not drawn)
3. COc1ccccc1CNC(=O)c1cc(C(=O)c2ccccc2C)c[nH]1
4. CN(C)CCN(C)C(=O)c1cc(-c2ccncc2)c(-c2ccc(Cl)c(O)c2)o1.Cl.Cl

Result ::
1. 22
2. 28
3. 100
4. 0

Okay, here is my list. What is %Inh for each of these?
1. CC(=O)Nc1nc2cnc(Nc3cc(NC(=O)c4cccc(CCC#N)c4)ccc3C)nc2s1
2. Cl.O=C(Nc1cccc(-c2nn3ncccc3c2-c2ccnc(Nc3cccnc3)n2)c1)c1c(F)cccc1F

Result ::
[9, 0]

Each compound below has a reported value. Please supply its %Inh.
1. Nc1ncnc2[nH]c(-c3ccccc3)nc12
2. Cc1c(O)cccc1Nc1ccnc2ccc(C(F)(F)F)cc12.Cl
3. Cc1cc(NCC(c2ccccc2)c2ccccc2)nc(NCc2ccc(C(F)(F)F)cc2)n1
4. O=C1NC(=O)C(N2CCc3ccccc32)=C1c1ccccc1Cl
5. CN1C(=O)C(Nc2ccc(Cl)c(C(=O)O)c2)=C(c2ccc(Cl)cc2)C1=O

Result ::
1. 99.9
2. 0
3. 3
4. 12
5. 0

For each of the compounds below, note its %Inh.
1. COc1ccc(Nc2nccc(-c3cccc(NC(=O)c4cc5cc(F)ccc5[nH]4)c3)n2)cc1
2. COc1cc2nccc(Nc3ccc(NC(=O)c4ccc(C)cc4)c(O)c3)c2cc1OC.Cl
3. Cc1ccc(-c2cc(-c3c[nH]nc3-c3ccccn3)ccn2)cc1
4. Cn1ccc2ncnc(Oc3cccc(C(=O)Nc4ccccc4)c3)c21
5. Cn1cncc1-c1ccc2ncnc(Nc3ccc(OCc4ccccc4)cc3)c2c1

Result ::
1. 4
2. 13
3. 0
4. 2
5. 0
